# test name: Solubility Test I (stepwise solvent addition)
# Assay type: physicochemical
# condition notes: organic solvent or mixture, thermodynamic from solid; solvent EtOAc; room temperature; undissolved sample completely dissolved at 50° C. ~1 h

{"columns": ["compound", "solubility"],
 "data": [
  ["CCOc1cc(-c2ccc(N3CC4CC(C3)N4Cc3ccc(OC)nc3)nc2)c2c3cn[nH]c3nn2c1 (single isomer, unassigned) [Crystal form A]", "< 2200 µg/mL"]
]}

---

# test name: Solubility Test I (stepwise solvent addition)
# Assay type: physicochemical
# condition notes: organic solvent or mixture, thermodynamic from solid; solvent CHCl3; room temperature

{"columns": ["compound", "solubility"],
 "data": [
  ["CCOc1cc(-c2ccc(N3CC4CC(C3)N4Cc3ccc(OC)nc3)nc2)c2c3cn[nH]c3nn2c1 (single isomer, unassigned) [Crystal form A]", "20 to 40 mg/mL"]
]}
